What fold change (FC) was measured for each of the following?
molecular target: ATP-dependent translocase ABCB1 (Homo sapiens); experiment: Reversal of P-gp mediated multidrug resistance in human DU145-TxR cells overexpressing P-gp assessed as potentiation of paclitaxel-induced cytotoxicity by measuring fold reduction paclitaxel IC50 at 5 uM after 48 hrs by MTT assay relative to paclitaxel alone; type: cell-based
Sequence (P08183 whole entry): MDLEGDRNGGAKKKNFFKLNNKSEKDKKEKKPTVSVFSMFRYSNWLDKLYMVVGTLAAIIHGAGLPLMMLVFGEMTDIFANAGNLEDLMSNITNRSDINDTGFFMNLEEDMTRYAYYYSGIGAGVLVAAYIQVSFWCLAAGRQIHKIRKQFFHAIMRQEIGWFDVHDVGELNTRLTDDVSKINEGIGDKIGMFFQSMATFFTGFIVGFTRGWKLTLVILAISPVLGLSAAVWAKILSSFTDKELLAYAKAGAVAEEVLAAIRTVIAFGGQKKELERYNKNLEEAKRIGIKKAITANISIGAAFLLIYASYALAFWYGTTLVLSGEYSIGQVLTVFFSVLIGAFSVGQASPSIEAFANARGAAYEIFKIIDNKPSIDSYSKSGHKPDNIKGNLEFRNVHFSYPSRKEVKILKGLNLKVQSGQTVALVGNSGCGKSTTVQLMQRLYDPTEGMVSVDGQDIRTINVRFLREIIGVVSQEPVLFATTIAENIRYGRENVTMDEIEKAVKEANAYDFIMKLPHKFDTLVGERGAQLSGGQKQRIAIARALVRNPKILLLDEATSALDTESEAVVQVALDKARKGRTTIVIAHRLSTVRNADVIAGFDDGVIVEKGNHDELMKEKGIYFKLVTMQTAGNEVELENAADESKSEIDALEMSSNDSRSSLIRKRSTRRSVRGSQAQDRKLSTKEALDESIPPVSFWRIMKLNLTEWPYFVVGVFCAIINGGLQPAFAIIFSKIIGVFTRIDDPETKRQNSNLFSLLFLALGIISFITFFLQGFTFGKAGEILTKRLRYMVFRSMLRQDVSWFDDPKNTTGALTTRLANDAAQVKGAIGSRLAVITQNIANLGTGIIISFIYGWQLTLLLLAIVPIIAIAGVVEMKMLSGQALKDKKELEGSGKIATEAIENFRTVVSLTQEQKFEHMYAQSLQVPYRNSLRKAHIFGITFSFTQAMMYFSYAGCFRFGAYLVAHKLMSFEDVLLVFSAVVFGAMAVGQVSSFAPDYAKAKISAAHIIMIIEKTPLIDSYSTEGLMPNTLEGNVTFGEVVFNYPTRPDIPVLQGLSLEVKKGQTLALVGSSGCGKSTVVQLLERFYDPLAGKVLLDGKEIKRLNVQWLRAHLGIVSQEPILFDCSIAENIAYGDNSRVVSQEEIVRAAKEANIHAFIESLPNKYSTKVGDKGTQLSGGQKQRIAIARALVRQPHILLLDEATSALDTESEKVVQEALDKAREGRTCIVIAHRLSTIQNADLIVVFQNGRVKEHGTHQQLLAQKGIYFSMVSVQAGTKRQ
The response must contain the number and no unit.

Recorded fold change (FC) for Cc1cc(C)c(-c2cc(NC(=O)CSCC(=O)NC34CC5CC(CC(C5)C3)C4)n(-c3ccccc3)n2)cc1C , please?
19

Form field: reported fold change (FC) of Cc1cc(C)c(-c2cc(NC(=O)CSCC(=O)N3c4ccccc4CCc4ccccc43)n(-c3ccccc3)n2)cc1C
41

Quick one: fold change (FC) for Cc1cc(C)c(-c2cc(NC(=O)CSc3nnc4c(n3)[nH]c3ccccc34)n(-c3ccccc3)n2)cc1C ?
101

Could you share which fold change (FC) value was measured for Cc1cc(C)c(-c2cc(NC(=O)CSCC(=O)c3ccc4c(c3)Cc3ccccc3-4)n(-c3ccccc3)n2)cc1C ?
14

Value lookup for fold change (FC); key = Cc1cc(C)c(-c2cc(NC(=O)CSCC(=O)NC(c3ccccc3)c3ccccc3)n(-c3ccccc3)n2)cc1C
38

Name the recorded fold change (FC) for Cc1cc(C)c(-c2cc(NC(=O)CSc3n[nH]c(C4CC4)n3)n(-c3ccccc3)n2)cc1C .
11

What value of fold change (FC) has been reported for the following molecule? COc1cc(NC(=O)CSCC(=O)Nc2cc(-c3cc(C)c(C)cc3C)nn2-c2ccccc2)cc(OC)c1OC
1116

Look at this molecule and give its reported fold change (FC). Cc1cc(C)c(-c2cc(NC(=O)CSc3cccc(NC(=O)c4cncc(Br)c4)c3)n(-c3ccccc3)n2)cc1C
106
